Tested on: SK-MEL-5 melanoma
testName: NCI tumour cell line growth inhibition, 48 h
quantity: TGI (µM)

{"compound": "COc1ccc(NC(=S)C#N)cc1", "unitsOfMeasure": "µM", "relationOperator": ">", "recordedMeasurement": 100}
{"compound": "CN1CCN(Cc2ccc(NC(=O)c3cncc(C#Cc4c(N)ncc5c(F)cccc45)c3)cc2C(F)(F)F)CC1", "unitsOfMeasure": "µM", "relationOperator": "=", "recordedMeasurement": 1.55}
{"compound": "Cn1cnc([N+](=O)[O-])c1Sc1nc2ccccc2o1", "unitsOfMeasure": "µM", "relationOperator": "=", "recordedMeasurement": 26.5}
{"compound": "COC(=O)C1CC(c2ccc(Cl)cc2)=NO1 (stereo not given)", "unitsOfMeasure": "µM", "relationOperator": ">", "recordedMeasurement": 100}
{"compound": "O=C(O)CCNc1ncc2c(n1)-c1ccccc1OC2", "unitsOfMeasure": "µM", "relationOperator": ">", "recordedMeasurement": 100}
{"compound": "Cc1ccccc1C=NC12CC3CC(CC(C3)C1)C2", "unitsOfMeasure": "µM", "relationOperator": ">", "recordedMeasurement": 100}
{"compound": "Fc1ccc(Oc2nc3ccccc3nc2-c2ccccc2)cc1", "unitsOfMeasure": "µM", "relationOperator": ">", "recordedMeasurement": 100}
{"compound": "CC(=O)OC1CC2C(C)(C)CCC[C@]2(C)C2=C1C(O)=C(C(C)C)C(=O)C2=O (stereo not given in full)", "unitsOfMeasure": "µM", "relationOperator": "=", "recordedMeasurement": 0.343}
{"compound": "Clc1ccc(OCc2nnc3sc(SSc4nn5c(COc6ccc(Cl)cc6)nnc5s4)nn23)cc1", "unitsOfMeasure": "µM", "relationOperator": ">", "recordedMeasurement": 100}
{"compound": "O=C(c1cc(Cl)cc(Cl)c1)N(Cc1cccnc1)C(=S)N(Cc1cccnc1)C(=O)c1cc(Cl)cc(Cl)c1", "unitsOfMeasure": "µM", "relationOperator": "=", "recordedMeasurement": 76}
{"compound": "OCC(O)C(O)C(O)C(O)CNCCO/N=C1/C(c2c(O)[nH]c3ccccc23)=Nc2ccccc21 (stereo not given)", "unitsOfMeasure": "µM", "relationOperator": "=", "recordedMeasurement": 16.3}
{"compound": "CC(C)NC(=O)OCc1nnn2c1CCC2", "unitsOfMeasure": "µM", "relationOperator": ">", "recordedMeasurement": 100}
{"compound": "O=c1c2cccc(F)c2sc2c(NCCCNCCO)nc3ccccc3c12", "unitsOfMeasure": "µM", "relationOperator": "=", "recordedMeasurement": 3.09}
{"compound": "O=C(CN1CCN(CCN2C(=O)c3cccc4cccc(c34)C2=O)CC1)Nc1ccc2ncsc2c1", "unitsOfMeasure": "µM", "relationOperator": "=", "recordedMeasurement": 16}
{"compound": "COC(=O)[C@H](C)NC(=O)C1(CNC(=O)[C@H](C)NC(=O)OC(C)(C)C)Cc2ccccc2-c2ccccc2C1", "unitsOfMeasure": "µM", "relationOperator": ">", "recordedMeasurement": 55}
{"compound": "COc1ccc(Cc2cc(OC)c(OC)c(OC)c2)cc1", "unitsOfMeasure": "µM", "relationOperator": "=", "recordedMeasurement": 21.2}
{"compound": "CC12CC/C(=N/NC(N)=O)C3C1CCCC32", "unitsOfMeasure": "µM", "relationOperator": ">", "recordedMeasurement": 100}
{"compound": "CCCCOC(=O)/C=C\\C(=O)NC(N)=O", "unitsOfMeasure": "µM", "relationOperator": "=", "recordedMeasurement": 71.4}
{"compound": "O=C1c2cccc([N+](=O)[O-])c2C(=O)c2nccnc21", "unitsOfMeasure": "µM", "relationOperator": "=", "recordedMeasurement": 1.13}
{"compound": "CCOc1cc(/C=N/c2nc3cc4sc(/N=C/c5ccc(O)c(OCC)c5)nc4cc3s2)ccc1O", "unitsOfMeasure": "µM", "relationOperator": ">", "recordedMeasurement": 100}
{"compound": "Fc1ccc(Nc2ncc(-c3cc(F)c(Cl)cc3Cl)s2)cc1Cl", "unitsOfMeasure": "µM", "relationOperator": "=", "recordedMeasurement": 25.9}
{"compound": "N#CC(c1ccccc1)N(CCc1ccccc1)C(=O)c1ccc(C(=O)N(CCc2ccccc2)C(C#N)c2ccccc2)cc1 (stereo not given)", "unitsOfMeasure": "µM", "relationOperator": "=", "recordedMeasurement": 27.2}
{"compound": "Nc1nc(=S)c2ncn(C3OC(CO)C(O)C3O)c2[nH]1 (stereo not given)", "unitsOfMeasure": "µM", "relationOperator": "=", "recordedMeasurement": 10.8}
{"compound": "Cc1cncc(-c2nc(NCCc3c[nH]c4ccccc34)c3ncn(C(C)C)c3n2)c1", "unitsOfMeasure": "µM", "relationOperator": "=", "recordedMeasurement": 15.5}
{"compound": "CSCCC(NC(=O)Cc1ccc(C(=O)c2ccccc2)cc1)C(=O)N1CCN(CCCCN2c3ccccc3Sc3cc(N=[N+]=[N-])ccc32)CC1 (stereo not given)", "unitsOfMeasure": "µM", "relationOperator": ">", "recordedMeasurement": 100}

----------
Test system: SR leukemia
testName: NCI tumour cell line growth inhibition, 48 h
quantity: TGI (µM)

{"molecule": "Cc1cc(O[C@@H]2O[C@@H](C)[C@H](O)[C@@H](O)[C@H]2O)c2c3c(c(O[C@@H]4O[C@@H](C)[C@H](O)[C@@H](O)[C@H]4O)cc2c1)C(=O)c1c(O)cccc1C3=O", "unitsOfMeasure": "µM", "relationOperator": ">", "recordedMeasurement": 30}
{"molecule": "Cc1ccc2nc(Sc3c([N+](=O)[O-])ncn3C)[nH]c2c1", "unitsOfMeasure": "µM", "relationOperator": "=", "recordedMeasurement": 42.2}
{"molecule": "Fc1cc(C2=Nn3c(CNc4ccc(Cl)cc4)nnc3S/C2=C\\c2ccc(-c3ccc(Cl)cc3)o2)c(Cl)cc1Cl", "unitsOfMeasure": "µM", "relationOperator": ">", "recordedMeasurement": 100}
{"molecule": "CC[O-].CC[O-].COc1ccc(C(=O)[CH-]C(C)=O)cc1OC.COc1ccc(C(=O)[CH-]C(C)=O)cc1OC.[Ti+4]", "unitsOfMeasure": "µM", "relationOperator": "=", "recordedMeasurement": 83.4}
{"molecule": "O=C(CCC(=O)Nc1ccc(Cl)cc1)CC(=O)c1ccc2ccccc2c1", "unitsOfMeasure": "µM", "relationOperator": ">", "recordedMeasurement": 100}
{"molecule": "O=c1c2cccc(F)c2sc2c(NCCCNCCO)nc3ccccc3c12", "unitsOfMeasure": "µM", "relationOperator": "=", "recordedMeasurement": 4.85}
{"molecule": "COC1=CC(c2ccc[nH]2)=N/C1=C\\c1[nH]c(C)c(C(=O)Oc2ccccc2)c1C", "unitsOfMeasure": "µM", "relationOperator": "=", "recordedMeasurement": 1.11}
{"molecule": "Cn1cnc([N+](=O)[O-])c1Sc1nc2ccccc2o1", "unitsOfMeasure": "µM", "relationOperator": "=", "recordedMeasurement": 8.14}
{"molecule": "CC1(C)CCCC2CC2CCC(C)(C)C1=O (stereo not given)", "unitsOfMeasure": "µM", "relationOperator": "=", "recordedMeasurement": 45.6}
{"molecule": "COC(O)C(=O)c1c2c(cc3c1CCC3)CCC2 (stereo not given)", "unitsOfMeasure": "µM", "relationOperator": ">", "recordedMeasurement": 100}

----------
Quick list: TGI per entry.
Test system: M14 melanoma
testName: NCI tumour cell line growth inhibition, 48 h
quantity: TGI

{"compound": "Cc1cc(O)c2c(c1)C(C1OC(CO)C(O)C(O)C1O)c1cc(O)cc(O)c1C2=O (configuration not stated)", "quantity": "TGI", "recordedMeasurement": "> 100 µM"}
{"compound": "Cc1nn(C(=O)c2ccc(Cl)cc2)c2c1C(c1ccccc1O)SC(N)=N2 (configuration not stated)", "quantity": "TGI", "recordedMeasurement": "> 10 µM"}
{"compound": "O=[N+]([O-])c1ccc(NNN=Nc2ccc(-c3nc4ccccc4[nH]3)cc2)c([N+](=O)[O-])c1", "quantity": "TGI", "recordedMeasurement": "> 100 µM"}
{"compound": "O=C(CSc1nnc(Cc2ccccc2)o1)Nc1ccc(Cl)cc1[N+](=O)[O-]", "quantity": "TGI", "recordedMeasurement": "32.9 µM"}
{"compound": "O=S(=O)(O)c1ccc(Nc2ccnc3ccccc23)cc1", "quantity": "TGI", "recordedMeasurement": "> 100 µM"}
{"compound": "C1=Nc2ccccc2Cn2nncc21", "quantity": "TGI", "recordedMeasurement": "> 100 µM"}
{"compound": "CN1C(c2ccccc2)CC(C)(O)CC1c1ccccc1 (configuration not stated)", "quantity": "TGI", "recordedMeasurement": "> 100 µM"}
{"compound": "O=C(/C=C\\c1cc(Br)ccc1O)/C=C/c1cc(Br)ccc1O", "quantity": "TGI", "recordedMeasurement": "3.08 µM"}
{"compound": "OCC(O)C(O)C(O)C(O)CNCCO/N=C1/C(c2c(O)[nH]c3ccccc23)=Nc2ccccc21 (configuration not stated)", "quantity": "TGI", "recordedMeasurement": "> 50 µM"}
{"compound": "O=C(CC(=O)N1N=C(n2ccc3ccccc32)CC1c1ccccc1)Nc1ccc(Cl)cc1 (configuration not stated)", "quantity": "TGI", "recordedMeasurement": "> 100 µM"}
{"compound": "CC1NC(C(=O)O)Cc2cc(O)c(O)cc21 (configuration not stated)", "quantity": "TGI", "recordedMeasurement": "> 100 µM"}
{"compound": "CC(C)(C)CNCCCNc1ccc(Cl)cc1", "quantity": "TGI", "recordedMeasurement": "58.6 µM"}
{"compound": "COc1ccc(N=C(CS(=O)c2ccc(C)cc2)C(F)(F)F)cc1 (configuration not stated)", "quantity": "TGI", "recordedMeasurement": "> 100 µM"}
{"compound": "O=C(CCC(=O)Nc1ccc(Cl)cc1)CC(=O)c1ccc2ccccc2c1", "quantity": "TGI", "recordedMeasurement": "> 100 µM"}
{"compound": "O=C(COc1cccc(/C=C2\\COc3ccccc3C2=O)c1)c1ccccc1", "quantity": "TGI", "recordedMeasurement": "14 µM"}
{"compound": "O=C(/C=C/c1ccco1)Nc1ncc(Cc2cccc(C(F)(F)F)c2)s1", "quantity": "TGI", "recordedMeasurement": "3.18 µM"}
{"compound": "O=C1CC(C(=O)O)Cc2c(Br)ccc(O)c21 (configuration not stated)", "quantity": "TGI", "recordedMeasurement": "> 100 µM"}
{"compound": "C[C@@H](Oc1ccc(Oc2cnc3ccc(Cl)cc3n2)cc1)C(=O)O", "quantity": "TGI", "recordedMeasurement": "> 100 µM"}
{"compound": "CS(=O)(=O)c1ccc2c(c1)C(=O)c1c-2n(CCCBr)c(=O)c2cc([N+](=O)[O-])ccc12", "quantity": "TGI", "recordedMeasurement": "> 100 µM"}
{"compound": "CC(=O)Nc1c2sscc-2n(C)c1=O", "quantity": "TGI", "recordedMeasurement": "0.865 µM"}
{"compound": "O=C1N=CN=C2C=CC(Cl)=C(I)C12 (configuration not stated)", "quantity": "TGI", "recordedMeasurement": "> 100 µM"}
{"compound": "N#CC(c1ccccc1)N(CCc1ccccc1)C(=O)c1ccc(C(=O)N(CCc2ccccc2)C(C#N)c2ccccc2)cc1 (configuration not stated)", "quantity": "TGI", "recordedMeasurement": "79 µM"}
